Data origin: patent US20060246046A1

# MEASUREMENT_TARGET: T1, factor XIIIa (human, UniProt P00488 39-732)
# T1 sequence (looked up): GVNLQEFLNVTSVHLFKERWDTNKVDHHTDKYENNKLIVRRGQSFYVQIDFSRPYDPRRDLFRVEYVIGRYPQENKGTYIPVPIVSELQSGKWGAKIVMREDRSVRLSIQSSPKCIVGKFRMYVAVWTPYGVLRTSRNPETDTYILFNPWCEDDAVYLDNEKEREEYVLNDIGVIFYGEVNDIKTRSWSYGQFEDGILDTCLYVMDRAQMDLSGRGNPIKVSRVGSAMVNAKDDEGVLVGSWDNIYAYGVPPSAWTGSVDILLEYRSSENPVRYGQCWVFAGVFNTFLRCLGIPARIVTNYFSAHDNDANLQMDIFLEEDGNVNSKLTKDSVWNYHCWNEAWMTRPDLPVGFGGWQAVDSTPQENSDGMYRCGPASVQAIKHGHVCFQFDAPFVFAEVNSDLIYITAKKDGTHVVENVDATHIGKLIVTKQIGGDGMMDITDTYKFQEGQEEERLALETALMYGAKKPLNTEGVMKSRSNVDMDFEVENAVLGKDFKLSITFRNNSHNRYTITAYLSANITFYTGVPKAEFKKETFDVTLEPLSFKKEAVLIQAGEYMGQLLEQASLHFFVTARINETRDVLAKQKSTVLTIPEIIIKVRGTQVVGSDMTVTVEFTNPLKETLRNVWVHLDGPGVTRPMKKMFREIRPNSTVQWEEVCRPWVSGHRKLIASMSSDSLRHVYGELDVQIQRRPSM
# METHOD_NOTES: cell-based or functional assay
The following binders are listed with their measured Relative inhibitory effect (%) at 7.27 µM, recombinant tridegin = 100% values.
Your answer is read as %, so omit the unit and give the number.

Please review the entries below; each comes with its answer.
Ac-RSELIKPMDDIYQRPVEFPN-NH2 [20 amino acid-long tridegin peptide SEQ ID NO.22] : 8.64
Ac-PCKEWHQGIPNPRCWCGADL-NH2 (cysteine pairing not given here) [20 amino acid-long tridegin peptide SEQ ID NO.4] : 9.8

Next binder, please.
Form: binder = Ac-WCGADLECAQDQYCAFEPQC-NH2 (cysteine pairing not given here) [20 amino acid-long tridegin peptide SEQ ID NO.11] ; Relative inhibitory effect (%) at 7.27 µM, recombinant tridegin = 100% = 0.36
